Give hKv1.3 % inh. for every item shown.
# Experimental System: human Kv1.3 (Homo sapiens)
# Construct: expressed in transfected cells; host or cells: stably transfected cells grown in medium for CHO cells
# Sequence (P22001 whole entry): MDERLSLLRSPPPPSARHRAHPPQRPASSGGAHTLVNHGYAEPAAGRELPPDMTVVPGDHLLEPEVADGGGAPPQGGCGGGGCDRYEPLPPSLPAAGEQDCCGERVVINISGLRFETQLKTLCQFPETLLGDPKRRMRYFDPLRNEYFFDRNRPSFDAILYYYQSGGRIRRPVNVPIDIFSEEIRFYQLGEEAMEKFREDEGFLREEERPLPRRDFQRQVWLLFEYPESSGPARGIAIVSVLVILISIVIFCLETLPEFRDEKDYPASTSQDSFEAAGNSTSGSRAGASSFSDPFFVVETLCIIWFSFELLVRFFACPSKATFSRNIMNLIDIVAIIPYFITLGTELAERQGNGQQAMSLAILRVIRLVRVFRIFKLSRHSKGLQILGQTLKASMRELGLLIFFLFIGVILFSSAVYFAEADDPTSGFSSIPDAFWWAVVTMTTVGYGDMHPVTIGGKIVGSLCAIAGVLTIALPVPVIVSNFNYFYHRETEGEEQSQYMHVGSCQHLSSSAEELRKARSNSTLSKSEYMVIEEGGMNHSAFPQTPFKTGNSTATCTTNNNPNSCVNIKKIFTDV
# Experiment: Kv1.3 Autopatch electrophysiology (whole cell patch-clamp, inhibition of charge movement)
# Format: cell-based
# Assay Setup: compound at 1 μM; cells stably transfected with human Kv1.3; room temperature; total charge during step to +30 mV relative to control
Reply with the number, then its unit.

Report hKv1.3 % inh. for each item below.
1. CN(C)S(=O)(=O)N(Cc1ccccc1)c1ccc(C(=O)N2CCC(OCc3ccccc3)C2)cc1 (centres unmarked)
2. CN(C)S(=O)(=O)N(Cc1ccccc1)c1ccc(C(=O)N2CCC(O)(c3ccccc3)CC2)cc1
3. CN(C)S(=O)(=O)N(Cc1ccccc1)c1ccc(C(=O)N2CCN(c3ccccc3C#N)CC2)cc1
4. CN(C)S(=O)(=O)N(Cc1ccccc1)c1ccc(C(=O)N2CCC(Oc3ccccc3)CC2)cc1
5. CC(C)c1noc(C2CCCN(C(=O)c3ccc(N(Cc4ccccc4)S(=O)(=O)N(C)C)cc3)C2)n1 (centres unmarked)

[out]
["26%", "27%", "42%", "68%", "31%"]
